Origin of measurements: paper PMC9532951

Test system: SNAT1/2
Test: FMP assay: depolarisation by amino acid substrates in amino acid depleted HCC1806 cells
Type: cell-based, human
Settings: 1 mM
reported_metric: FMP response as substrate

Example entries and their recorded answers appear below.
compound	FMP response as substrate
O=C(O)[C@@H]1CCCN1 [Proline]	strongest response
C[C@H](N)C(=O)O [Alanine]	strongest response
NCC(=O)O [Glycine]	strongest response
N[C@@H](Cc1ccccc1)C(=O)O [Phenylalanine]	weak signal
CC(C)C[C@H](N)C(=O)O [Leucine]	weak signal

Please turn your attention to the following entry.
q: For NC(=O)CC[C@H](N)C(=O)O [Glutamine, glutamine] , what is its reported FMP response as substrate?
a: strongest response
